assay: Pharmacokinetic study in rats after oral administration of R. cordifolia extract (UHPLC-MS/MS of plasma); type: in vivo, Sprague-Dawley (SD) rats; conditions: male, Sprague-Dawley; rat plasma, single oral 0.82 g/kg R. cordifolia extract, mean ± SD, n = 12; read-out: Cmax
quantity_measured: Cmax

### Prompt # Cmax lookup, item COC(=O)c1c2c(c3ccccc3c1O)OC(C)(C)C=C2
### Response 52.1 ng/mL

###

test: Pharmacokinetic study in rats after oral administration of R. cordifolia extract (UHPLC-MS/MS of plasma); format: in vivo, Sprague-Dawley (SD) rats; details: male, Sprague-Dawley, rat, in vivo, po, 0.82 g/kg
quantity_measured: Tmax (h)
Respond numerically; units are h and should not be typed.

>>> print(df.to_string())
                                   compound  quantity_measured  value
0  O=C1c2ccccc2C(=O)c2c1cc(O)c(C(=O)O)c2O [Munjistin, munjistin]               Tmax   2.58

### Prompt # Tmax lookup, item O=C1c2ccccc2C(=O)c2c(O)c(O)cc(O)c21 [Purpurin, purpurin]
### Response 1.61

###

assay: Pharmacokinetic study in rats after oral administration of R. cordifolia extract (UHPLC-MS/MS of plasma); assay type: in vivo, Sprague-Dawley (SD) rats; conditions: male, Sprague-Dawley, rat, in vivo, po, 0.82 g/kg
List of Cmax values.
Respond numerically; units are ng/mL and should not be typed.

In [3]: df
Out[3]:
                         structure_string  quantity_measured  endpoint_unit  value
0  O=C1c2ccccc2C(=O)c2c1cc(O)c(C(=O)O)c2O               Cmax          ng/mL   26.1

Please find the next compound below.
### Prompt # Cmax lookup, item O=C1c2ccccc2C(=O)c2c(O)c(O)cc(O)c21
### Response 70.1

###

experiment: Pharmacokinetic study in rats after oral administration of R. cordifolia extract (UHPLC-MS/MS of plasma); format: in vivo, Sprague-Dawley (SD) rats; conditions: male, Sprague-Dawley; rat plasma, single oral 0.82 g/kg R. cordifolia extract, mean ± SD, n = 12; read-out: AUC0→t
quantity_measured: AUC(0-t)

### Prompt # AUC(0-t) lookup, item COC(=O)c1c2c(c3ccccc3c1O)OC(C)(C)C=C2 [Mollugin, mollugin]
### Response 232 ng·h/mL

###

experiment: Pharmacokinetic study in rats after oral administration of R. cordifolia extract (UHPLC-MS/MS of plasma); format: in vivo, Sprague-Dawley (SD) rats; conditions: male, Sprague-Dawley; rat plasma, single oral 0.82 g/kg R. cordifolia extract, mean ± SD, n = 12; read-out: AUC0→∞
quantity_measured: AUC(0-inf) (ng·h/mL)
Respond numerically; units are ng·h/mL and should not be typed.

### Prompt # AUC(0-inf) lookup, item COC(=O)c1c2c(c3ccccc3c1O)OC(C)(C)C=C2
### Response 296

###

experiment: Pharmacokinetic study in rats after oral administration of R. cordifolia extract (UHPLC-MS/MS of plasma); type: in vivo, Sprague-Dawley (SD) rats; conditions: male, Sprague-Dawley; rat plasma, single oral 0.82 g/kg R. cordifolia extract, mean ± SD, n = 12, non-compartment model; read-out: t1/2 (converted)
quantity_measured: half-life

### Prompt # half-life lookup, item COC(=O)c1c2c(c3ccccc3c1O)OC(C)(C)C=C2
### Response 9.02 h

###

assay: Pharmacokinetic study in rats after oral administration of R. cordifolia extract (UHPLC-MS/MS of plasma); format: in vivo, Sprague-Dawley (SD) rats; settings: male, Sprague-Dawley, rat, in vivo, po, 0.82 g/kg
quantity_measured: AUC(0-inf)
For clarity, give the value followed by its unit.

>>> df
                         structure_string        value
0  O=C1c2ccccc2C(=O)c2c1cc(O)c(C(=O)O)c2O  136 ng·h/mL

Please find the next compound below.
### Prompt # AUC(0-inf) lookup, item O=C1c2ccccc2C(=O)c2c(O)c(O)cc(O)c21
### Response 243 ng·h/mL
